- Tested on: Escherichia coli TOP10
- Assay Explanation: shrunken log2 fold change of peptide-encoding DNA abundance (4.5 h post-induction vs induction); higher = less antimicrobial activity (less host growth inhibition)
- Condition Label: time post-induction: 4.5 h; library: site-saturation at positions 5, 18, 19, 20
For each entry below, report its shrunken log2 fold change value.
Please respond with just the number, no unit label.

Consider the sequence RRIRWRPPRLPRPRPRPIEIPRP and give its measured shrunken log2 fold change.
-0.101

// query shrunken log2 fold change value for entry RRIRLRPPRLPRPRPRPHPIPRP
0.0174

GET /values?readout=shrunken log2 fold change&item= RRIRSRPPRLPRPRPRPHKTPRP
-0.258

Recorded shrunken log2 fold change of RRIRIRPPRLPRPRPRPGRYPRP , please.
-0.0696

What measured shrunken log2 fold change goes with RRIRPRPPRLPRPRPRPVNDPRP ?
-0.106

Given RRIRVRPPRLPRPRPRPQQSPRP , state its recorded shrunken log2 fold change.
-0.0738

If you can, please state the reported shrunken log2 fold change value of RRIRDRPPRLPRPRPRPEVGPRP .
0.00896

Would you kindly share the measured shrunken log2 fold change for RRIRLRPPRLPRPRPRPNEQPRP ?
-0.0127

// returns reported shrunken log2 fold change for input RRIRPRPPRLPRPRPRPGWNPRP
-0.055

Reported shrunken log2 fold change for RRIRNRPPRLPRPRPRPGKVPRP : what is it?
-0.123

I am curious: what shrunken log2 fold change value has been reported for RRIRNRPPRLPRPRPRPIRQPRP ?
0.0261

# input sequence: RRIRFRPPRLPRPRPRPNMCPRP ; wanted: its shrunken log2 fold change
-0.54

Request the reported shrunken log2 fold change associated with RRIRQRPPRLPRPRPRPHWYPRP
-0.0983

What shrunken log2 fold change value was documented for this sequence, RRIRCRPPRLPRPRPRPGPRPRP ?
0.713

Requested read-out: shrunken log2 fold change. Entry: RRIRDRPPRLPRPRPRPLHEPRP
-0.129

What value of shrunken log2 fold change has been recorded for this entry: RRIRHRPPRLPRPRPRPTGEPRP
-0.0103

Tell me the measured shrunken log2 fold change of RRIRKRPPRLPRPRPRPMSGPRP , please.
-0.211

Please report the recorded shrunken log2 fold change for RRIRSRPPRLPRPRPRPHDEPRP .
0.0683

# query: shrunken log2 fold change of entry RRIRKRPPRLPRPRPRPVGFPRP
0.485

What does the record list as shrunken log2 fold change for RRIRQRPPRLPRPRPRPAQRPRP ?
0.302

shrunken log2 fold change lookup needed for RRIRTRPPRLPRPRPRPTVDPRP , thanks.
-0.126

What does the record list as shrunken log2 fold change for RRIRMRPPRLPRPRPRPCHRPRP ?
0.00646

Look up shrunken log2 fold change: RRIRNRPPRLPRPRPRPRMHPRP
0.217

Return reported shrunken log2 fold change; argument: RRIRKRPPRLPRPRPRPRMMPRP
0.492

Entry RRIRVRPPRLPRPRPRPICVPRP : reported shrunken log2 fold change = ?
-0.0314

Need shrunken log2 fold change of RRIRHRPPRLPRPRPRPSKIPRP , thanks.
-0.517

For the sequence RRIRDRPPRLPRPRPRPVNGPRP , what shrunken log2 fold change is on record?
-0.0115

For the sequence shown here, RRIRCRPPRLPRPRPRPQGEPRP , give the reported shrunken log2 fold change.
0.161

Item RRIRGRPPRLPRPRPRPWTQPRP has what recorded shrunken log2 fold change?
0.236

For the sequence shown here, RRIRHRPPRLPRPRPRPTFAPRP , give the reported shrunken log2 fold change.
3.26

Recorded shrunken log2 fold change of RRIRWRPPRLPRPRPRPTNHPRP , please.
-0.245

Any idea what its shrunken log2 fold change is? The sequence is RRIRGRPPRLPRPRPRPRGMPRP
0.939

====

Assign shrunken log2 fold change to each entry below.
- System: Escherichia coli TOP10
- Assay Explanation: shrunken log2 fold change of peptide-encoding DNA abundance (4.5 h post-induction vs induction); higher = less antimicrobial activity (less host growth inhibition)
- Condition Label: time post-induction: 4.5 h; library: site-saturation at positions 5, 18, 19, 20
Please give only the number in your answer, with no unit.

Notebook: pull reported shrunken log2 fold change for Escherichia coli TOP10, entry RRIRARPPRLPRPRPRPCSMPRP
0.00269

What value of shrunken log2 fold change on Escherichia coli TOP10 does RRIRNRPPRLPRPRPRPMKCPRP have?
0.0131

Given the entry RRIRIRPPRLPRPRPRPRNDPRP , what shrunken log2 fold change was observed with Escherichia coli TOP10?
-0.543

Tell me reported shrunken log2 fold change for RRIRRRPPRLPRPRPRPPPVPRP , tested with Escherichia coli TOP10.
0.931

Provide value of shrunken log2 fold change for this record tested with Escherichia coli TOP10: RRIRFRPPRLPRPRPRPIQLPRP
-0.336

Kindly state the measured shrunken log2 fold change obtained for RRIRCRPPRLPRPRPRPYDHPRP with Escherichia coli TOP10.
-0.797

Lab note: need shrunken log2 fold change for RRIRSRPPRLPRPRPRPLFDPRP on Escherichia coli TOP10, anyone have it?
-0.335

Lab note: need shrunken log2 fold change with Escherichia coli TOP10 for entry RRIRFRPPRLPRPRPRPQNIPRP , please look it up.
-0.411

Provide the documented shrunken log2 fold change with Escherichia coli TOP10 as the system for RRIRHRPPRLPRPRPRPILVPRP
-0.148

For the record RRIRLRPPRLPRPRPRPDMRPRP , what value of shrunken log2 fold change is listed for Escherichia coli TOP10?
-0.0825

Hello, I am looking for reported shrunken log2 fold change with Escherichia coli TOP10 for RRIRLRPPRLPRPRPRPAYFPRP . Could you help?
-0.364

Observed shrunken log2 fold change on Escherichia coli TOP10 for RRIRLRPPRLPRPRPRPQLNPRP , please.
-0.214

Give the reported shrunken log2 fold change for RRIRRRPPRLPRPRPRPLDYPRP (system: Escherichia coli TOP10).
-0.324

I'm curious: which shrunken log2 fold change was measured for RRIRIRPPRLPRPRPRPLCWPRP tested on Escherichia coli TOP10?
-0.0614

What measured shrunken log2 fold change is associated with RRIRARPPRLPRPRPRPSIRPRP on Escherichia coli TOP10?
-0.0712

Lab request: please report shrunken log2 fold change under test system Escherichia coli TOP10 for RRIRFRPPRLPRPRPRPWQIPRP
-0.0302

// fetch Escherichia coli TOP10 shrunken log2 fold change for RRIRTRPPRLPRPRPRPINIPRP
-0.208

Identify the measured shrunken log2 fold change of RRIRPRPPRLPRPRPRPAMDPRP for Escherichia coli TOP10.
0.0161

# query: shrunken log2 fold change | item RRIRKRPPRLPRPRPRPKWFPRP | system: Escherichia coli TOP10
-0.039

Notebook: pull reported shrunken log2 fold change for Escherichia coli TOP10, entry RRIRPRPPRLPRPRPRPLGTPRP
0.125

Form: Entry = RRIRFRPPRLPRPRPRPMLYPRP | System = Escherichia coli TOP10 | shrunken log2 fold change = ____
-0.567

Item RRIRSRPPRLPRPRPRPMTCPRP with Escherichia coli TOP10 - shrunken log2 fold change?
0.04

Report shrunken log2 fold change for RRIRFRPPRLPRPRPRPTEKPRP tested on Escherichia coli TOP10.
-0.0949

Give recorded shrunken log2 fold change with Escherichia coli TOP10 for the following sequence: RRIRLRPPRLPRPRPRPLHRPRP
-0.226

# value lookup — system Escherichia coli TOP10, readout shrunken log2 fold change, item RRIRFRPPRLPRPRPRPNTFPRP
-0.559

I'm curious: which shrunken log2 fold change was measured for RRIRARPPRLPRPRPRPFGTPRP tested on Escherichia coli TOP10?
-0.194

Notebook: pull reported shrunken log2 fold change for Escherichia coli TOP10, entry RRIRWRPPRLPRPRPRPTEEPRP
0.12

Record RRIRFRPPRLPRPRPRPDGTPRP : what is its shrunken log2 fold change with Escherichia coli TOP10?
-0.256

Lookup: shrunken log2 fold change / Escherichia coli TOP10 / RRIRCRPPRLPRPRPRPVILPRP
-0.799

Find shrunken log2 fold change (Escherichia coli TOP10) for the entry RRIRVRPPRLPRPRPRPCETPRP
0.0572

Hi! What's the reported shrunken log2 fold change for RRIRSRPPRLPRPRPRPLPCPRP on Escherichia coli TOP10?
-0.00277

Item: RRIRMRPPRLPRPRPRPNFFPRP Test system: Escherichia coli TOP10 Read-out: shrunken log2 fold change Value: ?
0.128

====

- System: Escherichia coli TOP10;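 further: peptides expressed intracellularly from a pBAD plasmid library in pooled LB shake-flask culture, induced with 0.3% L-arabinose, DNA abundance read by NGS, three biological replicates, DESeq2 with apeglm shrinkage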
- Assay Explanation: shrunken log2 fold change of peptide-encoding DNA abundance (4.5 h post-induction vs induction); higher = less antimicrobial activity (less host growth inhibition)
- Condition Label: time post-induction: 4.5 h; library: site-saturation at positions 5, 18, 19, 20
Entries are grouped by shrunken log2 fold change into these classes: low end: < -0.1; middle: ≥ -0.1 and < 0.03; high end: ≥ 0.03

Using the reported shrunken log2 fold change, which band applies to RRIRHRPPRLPRPRPRPRKQPRP ?
high end

Classify this sequence: RRIRRRPPRLPRPRPRPWCDPRP
high end

Entry RRIRFRPPRLPRPRPRPQKIPRP belongs to which category?
low end

Which bin should I file RRIRGRPPRLPRPRPRPFNLPRP under?
low end

For RRIRARPPRLPRPRPRPGYKPRP , which shrunken log2 fold change bin applies?
low end

Which of the defined bands does the recorded shrunken log2 fold change of RRIRIRPPRLPRPRPRPWWAPRP sit within?
low end

Class? Entry: RRIRMRPPRLPRPRPRPLQHPRP
high end

Class for RRIRRRPPRLPRPRPRPQQIPRP ?
middle

Band assignment needed for RRIRLRPPRLPRPRPRPCEAPRP please.
high end

Which band does RRIRVRPPRLPRPRPRPANRPRP fall in?
low end

Determine which band this sequence sits in: RRIRSRPPRLPRPRPRPSYDPRP
low end

Just checking, what class would you give RRIRTRPPRLPRPRPRPTKQPRP here?
middle

Category lookup for the sequence RRIRDRPPRLPRPRPRPCYKPRP
high end

Assign a bin to RRIRTRPPRLPRPRPRPWKFPRP
middle

Which shrunken log2 fold change category applies to RRIRFRPPRLPRPRPRPLMLPRP here?
low end

Input RRIRKRPPRLPRPRPRPQMNPRP ; output its category
high end

State the band of RRIRMRPPRLPRPRPRPDDRPRP
middle

Kindly identify the class of RRIRERPPRLPRPRPRPDISPRP .
high end

Category of RRIRQRPPRLPRPRPRPYKQPRP , please.
middle

Pick a category. Item: RRIRARPPRLPRPRPRPVFCPRP
high end

Could you place RRIRLRPPRLPRPRPRPRDMPRP in its proper category? Many thanks.
middle

Bin this entry: RRIRRRPPRLPRPRPRPQFIPRP
low end

Sort into band: RRIRLRPPRLPRPRPRPASKPRP
low end

Field: class (shrunken log2 fold change) — entry: RRIRFRPPRLPRPRPRPVRQPRP
high end

Place this sequence in its band: RRIRQRPPRLPRPRPRPGWMPRP
low end

Entry RRIRERPPRLPRPRPRPRAEPRP belongs to which category?
low end

Just checking, what class would you give RRIRCRPPRLPRPRPRPCWRPRP here?
high end

Determine which band this sequence sits in: RRIRLRPPRLPRPRPRPGAQPRP
high end

Please let me know in which category the item RRIRNRPPRLPRPRPRPRSYPRP belongs.
middle

GET /class?item= RRIRMRPPRLPRPRPRPQDDPRP
middle

# bin label for RRIRKRPPRLPRPRPRPSPYPRP
middle

Where would RRIRWRPPRLPRPRPRPQTQPRP land among the classes by reported shrunken log2 fold change?
high end
